Tested on: RAW-Dual
Experiment: NF-kB SEAP reporter activity, fold change vs agonist alone; cytotoxicity flag (confluency mask): not cytotoxic; higher = enhanced NF-kB activity
Conditions: agonist: ODN 1826 (TLR9) 0.5 ug/mL
In all, about 2,900 compounds were measured (“NF-kB SEAP reporter activity, fold change vs agonist alone”: median about 0.99, highest 2% from about 2.6 on). The sample holds the highest values, similar compounds and a random draw of the others, so the mix is not that of the screen.
measurement kind: NF-kB SEAP reporter activity

{"columns": ["molecule", "measurement kind", "result"],
 "data": [
  ["Cc1ccc(NC(=O)c2ccnc(C(F)(F)F)c2)cc1-c1cc(OCCO)nc(N2CCOCC2)c1 (library stock concentration (final ~1000-fold dilution): 10 mM)", "NF-kB SEAP reporter activity", 0.551],
  ["O=C(/C=C/c1cccnc1)NCCCCC1CCN(C(=O)c2ccccc2)CC1 (library stock concentration (final ~1000-fold dilution): 10 mM)", "NF-kB SEAP reporter activity", 1.07],
  ["COc1cc(C(=O)O)ccc1O (library stock concentration (final ~1000-fold dilution): 10 mM)", "NF-kB SEAP reporter activity", 1.12],
  ["CC1(C)CC(=O)c2c(C(F)(F)F)nn(-c3ccc(C(N)=O)c(NC4CCC(OC(=O)CN)CC4)c3)c2C1 (stereo not given) (library stock concentration (final ~1000-fold dilution): 10 mM)", "NF-kB SEAP reporter activity", 0.929],
  ["C=CC(=O)N1CC(N2CCN(C(=O)CNc3cc(C4(C)CC4)c(Cl)cc3O)CC2)C1 (library stock concentration (final ~1000-fold dilution): 10 mM)", "NF-kB SEAP reporter activity", 0.542]
]}

* * *

Test system: RAW-Dual
Experiment: NF-kB SEAP reporter activity, fold change vs agonist alone; cytotoxicity flag (confluency mask): not cytotoxic; higher = enhanced NF-kB activity
Settings: agonist: LPS (TLR4) 0.1 ug/mL
Over roughly 2,900 compounds, “NF-kB SEAP reporter activity, fold change vs agonist alone” has its median near 0.99; the highest 2% begin near 2.6. This excerpt belongs to a sample that is enriched for the highest values.
Label scheme for NF-kB SEAP reporter activity: lo (below 1), mid (1 to below 2), hi (2 or more)

{"columns": ["compound", "classification"],
 "data": [
  ["CC(C)(O)CNc1ncc(-c2ccnc(Nc3ccncc3)n2)c(CC2CC2)n1 (library stock concentration (final ~1000-fold dilution): 10 mM)", "hi"],
  ["COc1ccccc1-c1cc(Nc2cccc(CS(N)(=O)=O)c2)ncn1 (library stock concentration (final ~1000-fold dilution): 10 mM)", "hi"],
  ["CC(C)(O)CNc1nc(Nc2ccnc(C(F)(F)F)c2)nc(-c2cccc(C(F)(F)F)n2)n1 (library stock concentration (final ~1000-fold dilution): 10 mM)", "mid"],
  ["CCOC(=O)C(CCc1ccccc1)NC1CSC(c2cccs2)CN(CC(=O)O)C1=O.Cl (configuration not stated) (library stock concentration (final ~1000-fold dilution): 10 mM)", "lo"],
  ["CN1C2CCCC1CC(NC(=O)c1nn(C)c3ccccc13)C2.Cl (configuration not stated) (library stock concentration (final ~1000-fold dilution): 10 mM water)", "mid"],
  ["O=C(O)CCN1C(=O)C(=Cc2ccc(-c3ccc([N+](=O)[O-])cc3)o2)SC1=S (library stock concentration (final ~1000-fold dilution): 10 mM)", "lo"],
  ["CN(C)c1ccc(O)c2c1CC1CC3C(N(C)C)C(=O)C(C(N)=O)=C(O)C3(O)C(=O)C1=C2O (configuration not stated) (library stock concentration (final ~1000-fold dilution): 5 mM)", "mid"],
  ["O=C(N/N=C/c1ccc(O)c(O)c1)c1cc2ccccc2cc1O (library stock concentration (final ~1000-fold dilution): 10 mM)", "lo"],
  ["Fc1ccc(CNc2ncnc3ccc(F)cc23)cc1 (library stock concentration (final ~1000-fold dilution): 10 mM)", "hi"],
  ["CCOc1ccc(Cc2cc(C3OC(CO)C(O)C(O)C3O)ccc2Cl)cc1 (configuration not stated) (library stock concentration (final ~1000-fold dilution): 10 mM)", "mid"]
]}
